# tested.target: HDAC6 enzyme (Homo sapiens, UniProt Q9UBN7)
# Construct: transducing full length HDAC1 and HDAC6 genes into Sf-9 insect cells; GST; purchased SignalChem; host or cells: Sf-9 insect cells
# Sequence (Q9UBN7 whole entry): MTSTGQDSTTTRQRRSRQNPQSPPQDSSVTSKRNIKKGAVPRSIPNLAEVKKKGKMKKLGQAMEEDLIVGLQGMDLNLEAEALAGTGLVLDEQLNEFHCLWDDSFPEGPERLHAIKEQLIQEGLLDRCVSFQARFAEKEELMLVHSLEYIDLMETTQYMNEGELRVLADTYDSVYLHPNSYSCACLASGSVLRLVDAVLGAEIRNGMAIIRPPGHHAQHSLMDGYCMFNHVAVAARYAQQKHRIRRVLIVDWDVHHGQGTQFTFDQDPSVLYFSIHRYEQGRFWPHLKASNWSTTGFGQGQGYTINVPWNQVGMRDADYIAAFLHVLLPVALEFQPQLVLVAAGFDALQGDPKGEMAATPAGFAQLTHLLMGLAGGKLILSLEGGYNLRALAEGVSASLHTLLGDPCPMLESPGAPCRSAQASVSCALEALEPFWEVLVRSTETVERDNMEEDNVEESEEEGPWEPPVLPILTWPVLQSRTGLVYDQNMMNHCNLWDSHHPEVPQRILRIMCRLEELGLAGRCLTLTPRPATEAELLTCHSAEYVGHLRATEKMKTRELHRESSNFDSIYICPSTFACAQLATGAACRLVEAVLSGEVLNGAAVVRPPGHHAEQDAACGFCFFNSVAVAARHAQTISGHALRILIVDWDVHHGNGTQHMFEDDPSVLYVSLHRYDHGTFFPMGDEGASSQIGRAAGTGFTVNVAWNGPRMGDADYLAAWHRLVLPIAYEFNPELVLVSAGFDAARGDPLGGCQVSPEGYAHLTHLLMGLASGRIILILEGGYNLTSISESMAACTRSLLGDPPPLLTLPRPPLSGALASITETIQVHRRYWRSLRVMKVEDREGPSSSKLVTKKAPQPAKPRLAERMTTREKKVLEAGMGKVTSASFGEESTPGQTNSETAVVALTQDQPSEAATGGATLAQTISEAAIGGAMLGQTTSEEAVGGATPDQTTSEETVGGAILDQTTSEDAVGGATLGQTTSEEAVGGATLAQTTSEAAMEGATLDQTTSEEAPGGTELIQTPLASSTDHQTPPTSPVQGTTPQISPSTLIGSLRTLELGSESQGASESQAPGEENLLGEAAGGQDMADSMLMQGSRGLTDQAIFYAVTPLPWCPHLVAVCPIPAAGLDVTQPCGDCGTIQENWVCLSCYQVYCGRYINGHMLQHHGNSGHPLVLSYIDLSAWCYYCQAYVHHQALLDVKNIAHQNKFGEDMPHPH
# assay.name: HDAC1/6 Enzyme Inhibitory Assay (HDAC-Glo I/II Assay kit), HDAC6
# Format: biochemical
# measurement.context: 1 μM test compound; wells without enzyme = 100% inhibition; read-out: HDAC6 inhibitory rate (%) (1 μM)
Listed below: inhibition at 1 µM values for each entry.

Consider O=C(N[C@@H]1CCOC[C@H]1N1Cc2ccc(-c3noc(C(F)(F)F)n3)cc2C1=O)[C@@H]1CCOC1 . Its measured inhibition at 1 µM is 97%

More entries:
Consider CC(C)(C)OC(=O)N1CC[C@H](N2Cc3ccc(-c4noc(C(F)(F)F)n4)cc3C2=O)[C@@H](c2ccccc2)C1 . Its measured inhibition at 1 µM is 97%

Consider O=C(N[C@@H]1CCCC[C@H]1N1Cc2ccc(-c3noc(C(F)(F)F)n3)cc2C1=O)N1CC(F)(F)C1 . Its measured inhibition at 1 µM is 99%

Consider O=C(N[C@@H]1CCCC[C@H]1N1Cc2ccc(-c3noc(C(F)(F)F)n3)cc2C1=O)C1CCOC1 (some centres unmarked) . Its measured inhibition at 1 µM is 98%

Consider O=C(N[C@H]1CCOC[C@@H]1N1Cc2ccc(-c3noc(C(F)(F)F)n3)cc2C1=O)[C@H]1CCOC1 . Its measured inhibition at 1 µM is 55%

Consider O=C(N[C@@H]1CCCC[C@H]1N1Cc2ccc(-c3noc(C(F)(F)F)n3)cc2C1=O)[C@@H]1CC1(F)F . Its measured inhibition at 1 µM is 99%

Reference source: patent US10308643B2
